Cited source for all entries: ChEMBL document CHEMBL1136669

The reader will find reported Ratio values listed item by item below.
- Assay details: Ratio of kinetic constant (Kcat/KM) acting as acceptor substrate for gamma-GGT (Glutamyltranspeptidase)-mediated transpeptidation was determined in rat kidney
- Parameters: unit not given here
Enter a number only.

Below, 4 molecules whose answers are already recorded.
Would you kindly share the measured Ratio for COC(=O)[C@@H](N)COC(=O)Nc1ccc([N+](=O)[O-])cc1 ?
3e+06

Thanks! And COC(=O)[C@@H](N)CNC(=O)Nc1ccc([N+](=O)[O-])cc1 ?
1.4e+06

Thanks! And COC(=O)[C@@H](N)CCC(=O)Nc1ccc([N+](=O)[O-])cc1 ?
580000

Thanks! And N[C@@H](CCC(=O)Nc1ccc([N+](=O)[O-])cc1)C(=O)O ?
2.5e+06

// next entry
Would you kindly share the measured Ratio for COC(=O)[C@@H](N)CO ?
38000

----------
- Measured target: Glutathione hydrolase 1 proenzyme (Rattus norvegicus)
- Assay details: Kinetic constant acting as acceptor substrate for gamma-GGT (Glutamyltranspeptidase)-mediated transpeptidation was determined in rat kidney (units are 10e3/min)
- Assay type: tissue-based
Observed property: log10(k cat) (log10 of the value in s⁻¹)
In our notation, the value equals log10 of k cat in s⁻¹.

Below, 4 compounds whose answers are already recorded.
Would you kindly share the measured log10(k cat) for COC(=O)[C@@H](N)CNC(=O)Nc1ccc([N+](=O)[O-])cc1 ?
2.01

Thanks! And COC(=O)[C@@H](N)COC(=O)Nc1ccc([N+](=O)[O-])cc1 ?
1.90

Thanks! And COC(=O)[C@@H](N)CCC(=O)Nc1ccc([N+](=O)[O-])cc1 ?
1.73

Thanks! And N[C@@H](CCC(=O)Nc1ccc([N+](=O)[O-])cc1)C(=O)O ?
2.43

// next entry
Would you kindly share the measured log10(k cat) for COC(=O)[C@@H](N)CO ?
1.34
